subjectOfTest: FUS-SNAP condensates (Homo sapiens, UniProt P35637)
Sequence (P35637 1-526): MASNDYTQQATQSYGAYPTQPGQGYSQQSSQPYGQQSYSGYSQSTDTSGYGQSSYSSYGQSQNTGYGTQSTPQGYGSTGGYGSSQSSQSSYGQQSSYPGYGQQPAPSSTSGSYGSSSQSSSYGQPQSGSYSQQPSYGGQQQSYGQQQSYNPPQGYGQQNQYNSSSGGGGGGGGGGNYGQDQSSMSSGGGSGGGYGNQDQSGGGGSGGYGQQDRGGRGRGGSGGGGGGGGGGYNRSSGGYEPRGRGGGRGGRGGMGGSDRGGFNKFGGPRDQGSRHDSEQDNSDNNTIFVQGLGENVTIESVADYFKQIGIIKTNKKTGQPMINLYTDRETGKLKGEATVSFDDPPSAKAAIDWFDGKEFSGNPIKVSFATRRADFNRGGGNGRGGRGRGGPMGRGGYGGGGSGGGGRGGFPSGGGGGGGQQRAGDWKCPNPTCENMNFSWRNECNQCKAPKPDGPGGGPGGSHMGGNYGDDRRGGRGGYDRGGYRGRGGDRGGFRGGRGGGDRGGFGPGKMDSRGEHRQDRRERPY
experimentNotes: Fluorescence imaging of dye partitioning in FUS-SNAP condensates (I-in, I-out)
Type: physicochemical
settings: inside FUS-SNAP condensate; 10 μM dye, 5 μM protein; average of three images; one day of experiments
Where a name gives a salt, the structure may show the parent alone.
measuredQuantity: Intensity Inside with Dye Average

O=C(CCCC[C@@H]1SCC2NC(=O)NC21)NCCNC(=O)c1ccc(-c2c3ccc(=O)cc-3oc3ccc(O)cc23)c(C(=O)O)c1 (some centres unmarked) [Dye 13, Biotin-4-Fluorescein] = 4669.4
N=C(N)c1ccc(-c2cc3ccc(C(=N)N)cc3[nH]2)cc1 [Dye 1, DAPI] = 622.4
CC/N=c1/cc2oc3cc(NCC)c(C)cc3c(-c3ccccc3C(=O)NCCOCCOCCN)c-2cc1C.O=C(O)C(F)(F)F [Dye 15] = 3480.0

[a] CC(=O)Oc1ccc2c(c1)Oc1cc(OC(C)=O)ccc1C21OC(=O)c2ccccc21 [Dye 9, Fluorescein diacetate]
[b] O=c1cc(C(F)(F)F)c2ccc(O)cc2o1 [Dye 2, 7-Hydroxy-4-(trifluoromethyl)-coumarin]
[c] N#CC1=c2cc3c4c(c2Oc2c1cc1c5c2CCCN5CCC1)CCC[N+]=4CCC3 [Dye 18, Rhodamine 800]
Q: Given 3 molecules, produce a descending ranking by Intensity Inside with Dye Average. Please list each label once, in the requested order.
Ans: c, a, b
(c: 15051.4, a: 6034.1, b: 280.9)

[1] O=C1OC2(c3ccc(O[C@@H]4O[C@H](CO)[C@H](O)[C@H](O)[C@H]4O)cc3Oc3cc(O[C@@H]4O[C@H](CO)[C@H](O)[C@H](O)[C@H]4O)ccc32)c2ccccc21 [Dye 12, Fluorescein di(β-D-galacto-pyranoside)]
[2] CC(=O)N[C@H]1[C@H](Oc2ccc3c(c2)Oc2cc(O)ccc2C32OC(=O)c3ccccc32)O[C@H](CO)[C@H](O)[C@@H]1O (some centres unmarked) [Dye 5]
[3] O=C(O)c1cc2cc3c4c(c2oc1=O)CCCN4CCC3 [Dye 3, Coumarin 343]
Q: Thanks in advance: please rank these 3 entries by Intensity Inside with Dye Average, highest to lowest. # format: label list in the order the request specifies
Ans: 3, 2, 1

[a] O=C1OC2(c3ccc(O)cc3Oc3cc(O)ccc32)c2ccccc21 [Dye 6, Fluorescein]
[b] CC(=O)c1cc2cc3c4c(c2oc1=O)CCCN4CCC3 [Dye 4, Coumarin 334]
Q: I'm curious, which of these has a smaller Intensity Inside with Dye Average number: a or b ? In your reply, give the label of the chosen option.
Ans: a

[a] COC(=O)c1ccccc1-c1c2ccc(=N)cc-2oc2cc(N)ccc12.Cl [Dye 14, Rhodamine 123]
[b] O=C([O-])c1ccccc1C1=c2cc3c4c(c2Oc2c1cc1c5c2CCCN5CCC1)CCC[N+]=4CCC3 [Dye 17, Rhodamine 101 inner salt]
Q: Please indicate which entry, a or b , has the lower recorded Intensity Inside with Dye Average value. Indicate which entry you chose by stating its label.
Ans: a
